Molecular target: T1, orthogonal hCD122 receptor (hoRb), hCD122 with H133D and Y134F (human, UniProt P14784 27-550)
T1 sequence: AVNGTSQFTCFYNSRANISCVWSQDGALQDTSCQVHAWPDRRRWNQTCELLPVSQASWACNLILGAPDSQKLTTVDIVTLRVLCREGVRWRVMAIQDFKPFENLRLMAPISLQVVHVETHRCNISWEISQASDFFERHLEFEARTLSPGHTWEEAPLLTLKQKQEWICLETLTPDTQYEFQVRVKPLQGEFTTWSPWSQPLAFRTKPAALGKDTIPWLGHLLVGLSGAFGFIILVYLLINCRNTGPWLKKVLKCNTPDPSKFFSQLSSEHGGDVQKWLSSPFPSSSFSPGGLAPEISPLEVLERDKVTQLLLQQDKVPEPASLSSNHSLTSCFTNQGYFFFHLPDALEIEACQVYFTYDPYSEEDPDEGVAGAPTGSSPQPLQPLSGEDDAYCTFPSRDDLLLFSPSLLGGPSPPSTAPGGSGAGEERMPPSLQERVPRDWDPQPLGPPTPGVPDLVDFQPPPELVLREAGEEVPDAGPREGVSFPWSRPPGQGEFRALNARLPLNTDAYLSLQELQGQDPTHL
Assay: cell-based or functional assay
quantity.measured: 3F8 Ortho Proliferation Signal 1:2 (cts/min)

{"columns": ["binder", "value.observed"],
 "data": [
  ["SQVLKF (ligand) APTSSSTKKTQLQLSQLLVLLKFILNGINNYKNPKLTRMLTFKFYMPKKATELKHLQCLEEELKPLEEVLNLAQSKNFHLRPRDLISNINVIVLELKGSETTFMCEYADETATIVEFLNRWITFCQSIISTLT", 42100],
  ["ΔT51, SQVLKA (ligand) APTSSSTKKTQLQLSQLLVLLKAILNGINNYKNPKLTRMLTFKFYMPKKAELKHLQCLEEELKPLEEVLNLAQSKNFHLRPRDLISNINVIVLELKGSETTFMCEYADETATIVEFLNRWITFCQSIISTLT", 9940],
  ["Q126E, SQVLKA (ligand) APTSSSTKKTQLQLSQLLVLLKAILNGINNYKNPKLTRMLTFKFYMPKKATELKHLQCLEEELKPLEEVLNLAQSKNFHLRPRDLISNINVIVLELKGSETTFMCEYADETATIVEFLNRWITFCESIISTLT", 21000],
  ["L14W, SQVLKA (ligand) APTSSSTKKTQLQWSQLLVLLKAILNGINNYKNPKLTRMLTFKFYMPKKATELKHLQCLEEELKPLEEVLNLAQSKNFHLRPRDLISNINVIVLELKGSETTFMCEYADETATIVEFLNRWITFCQSIISTLT", 35300]
]}
